# assay-notes: Solubility study in distilled deionized water (DDW)
# condition-set: distilled deionized water, water, thermodynamic from solid
# Procedure: Aqueous solubility study of prodrugs was performed according to the published protocol from our laboratory. Saturated solution of each prodrug was prepared in DDW in siliconized tubes. […] The supernatant was separated, filtered through 0.45 µm membrane (Nalgene syringe filter) and analyzed with HPLC after appropriate dilutions. Aqueous solubility and buffer stability samples were measured with reversed phase HPLC technique. […] Analytes were detected with UV detection at a wavelength of 210 nm.

- compound: "CCC(C)C(N)C(=O)OC(CC(Cc1ccccc1)NC(=O)C(C(C)C)N1CCCNC1=O)C(Cc1ccccc1)NC(=O)COc1c(C)cccc1C (centres unmarked)"
  readout-unit: "µg/mL"
  solubility at 24 h: 625
- compound: "Cc1cccc(C)c1OCC(=O)N[C@@H](Cc1ccccc1)[C@@H](O)C[C@H](Cc1ccccc1)NC(=O)[C@H](C(C)C)N1CCCNC1=O"
  readout-unit: "µg/mL"
  solubility at 24 h: 40

* * *

# Tested on: CYP3A4 (rat liver microsomes)
# assay-notes: Rat liver microsomal stability

- molecule: "CSCCC(N)C(=O)OC(CC(Cc1ccccc1)NC(=O)C(C(C)C)N1CCCNC1=O)C(Cc1ccccc1)NC(=O)COc1c(C)cccc1C (stereo not shown) [Met-LPV, methionine-LPV]"
  Km: "~13 µM"

* * *

# System: CYP3A4
# assay-notes: Rat liver microsomal stability
# condition-set: Sprague Dawley, rat, pH 7.4
recorded-endpoint: Km at 5 min

- compound: "CCC(C)C(N)C(=O)OC(CC(Cc1ccccc1)NC(=O)C(C(C)C)N1CCCNC1=O)C(Cc1ccccc1)NC(=O)COc1c(C)cccc1C (stereo not shown)"
  endpoint-result: "~14.3 µM"

* * *

# assay-notes: Buffer stability (chemical hydrolysis) in DPBS
# condition-set: DPBS buffer, pH 4

- compound: "CCC(C)C(N)C(=O)OC(CC(Cc1ccccc1)NC(=O)C(C(C)C)N1CCCNC1=O)C(Cc1ccccc1)NC(=O)COc1c(C)cccc1C (stereo not shown)"
  half-life at 50 µM, h: 101

The reported numbers originate from paper PMC4014701.
